Overview of reported thermal shift delta Tm across a group of molecules:
Test system: LOC_OS03G27990-cb004
ASSAY_COMMENT: thermal shift delta Tm vs DMSO control; higher = stronger stabilization (binding);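 further: purified Escherichia coli-expressed rice kinase domain construct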
CONDITIONS_USED: 12.5 µM; protein concentration 2 µM
MEASURED_METRIC: thermal shift delta Tm (°C)

INSERT INTO assay_data (molecule, value_units, recorded_value) VALUES
  ('Nc1ccc(C(=O)Nc2cccc(-c3nc(N4CCOCC4)c4oc5ncccc5c4n3)c2)cn1', '°C', 0.09),
  ('COc1cc2c(N3CCN(C(=O)Nc4ccc(OC(C)C)cc4)CC3)ncnc2cc1OCCCN1CCCCC1', '°C', 0.28),
  ('CC(C)(O)CC(=O)NCCn1ccc2ncnc(Nc3ccc(Oc4cccc(C(F)(F)F)c4)c(Cl)c3)c21', '°C', 0.47),
  ('Cc1cc(Nc2cc(N3CCN(C)CC3)nc(/C=C/c3ccccc3)n2)n[nH]1 [ENMD-2076 L-(+)-Tartaric acid]', '°C', 2.61),
  ('CCn1cc(-c2ccnc3[nH]c(-c4cccc(CN(C)C)c4)cc23)c(-c2ccc(NC(=O)N(C)C)cc2)n1', '°C', 0.5),
  ('CC(C)(C#N)c1ccc(N2C(=O)OCc3cnc4ccc(-c5cnc6ccccc6c5)cc4c32)cc1', '°C', 0.32),
  ('COc1cc2c(Nc3ccc(NC(=O)c4ccccc4)cc3)ncnc2cc1OCCCN1CCOCC1', '°C', 0.34),
  ('CCn1c(=O)c(-c2cc[nH]n2)cc2c(C)nc(N)nc21', '°C', 0.09),
  ('COc1ccc(S(=O)(=O)N(C(C)=O)c2ccccc2/C=C/c2cc[n+]([O-])cc2)cc1', '°C', -0.03),
  ('CS(=O)(=O)CCNCc1ccc(-c2ccc3ncnc(Nc4ccc(OCc5cccc(F)c5)c(Cl)c4)c3c2)o1', '°C', 0.47),
  ('COCC(=O)NC/C=C/c1ccc2ncnc(Nc3ccc(Oc4ccc(C)nc4)c(C)c3)c2c1', '°C', -0.01),
  ('c1cn2cc(-c3ccc4cn[nH]c4c3)nc(Nc3ccc(N4CCOCC4)cc3)c2n1', '°C', 1.72),
  ('CN1CCN(c2ccc(C(=O)Nc3n[nH]c4ccc(Cc5cc(F)cc(F)c5)cc34)c(NC3CCOCC3)c2)CC1 [Entrectinib (RXDX-101)]', '°C', 0.44),
  ('COc1cc2c(cc1OC)[C@@H]1C(=O)c3ccc4c(c3O[C@@H]1CO2)C=CC(C)(C)O4', '°C', 0.07),
  ('C=CC(=O)Nc1cc(Nc2nccc(-c3cn(C)c4ccccc34)n2)c(OC)cc1N(C)CCN(C)C', '°C', 0.93),
  ('CNC(=O)c1ccccc1Sc1ccc2c(/C=C/c3ccccn3)n[nH]c2c1', '°C', 0.01),
  ('CCn1c(N)c(C(=O)NC)c(=O)c2ccc(C#CC(C)(O)COC)nc21 (configuration not stated)', '°C', 0.43);

* * *

Test system: LOC_OS03G50810-cb003
ASSAY_COMMENT: thermal shift delta Tm vs DMSO control; higher = stronger stabilization (binding)
CONDITIONS_USED: 12.5 µM; protein concentration 2 µM
Recorded thermal shift delta Tm for the following molecules
MEASURED_METRIC: thermal shift delta Tm (°C)

INSERT INTO assay_data (molecule, measured_metric, value_units, recorded_value) VALUES
  ('Cn1cc(-c2ccc(F)c(C(F)(F)F)c2)nc1C1CCN(c2ncnc3[nH]ncc23)CC1', 'thermal shift delta Tm', '°C', 0.37),
  ('Cc1csc(-c2nnc(Nc3ccc(Oc4ncccc4-c4ccnc(N)n4)cc3)c3ccccc23)c1', 'thermal shift delta Tm', '°C', 0.96),
  ('COc1cc2c(c(OC)c1OC)-c1c(cc3c(c1OC)OCO3)CC(C)C(C)C2 (centres undefined) [Schisandrin B (Sch B)]', 'thermal shift delta Tm', '°C', 0.12),
  ('Cc1nc(NC(=O)N2CCC[C@H]2C(N)=O)sc1-c1ccnc(C(C)(C)C(F)(F)F)c1', 'thermal shift delta Tm', '°C', 0.21);

* * *

System: LOC_OS01G70970-cb002
ASSAY_COMMENT: thermal shift delta Tm vs DMSO control; higher = stronger stabilization (binding)
CONDITIONS_USED: 12.5 µM; protein concentration 2 µM
Respond with yes for thermal shift delta Tm values of 0.3 °C and above, no for values below.

INSERT INTO measurements (molecule, subject_of_test, group_label) VALUES
  ('CCn1c(=O)c(-c2ccc(-c3cncs3)cc2Cl)cc2cnc(Nc3ccc(N4CCN(C)CC4)cc3)nc21', 'LOC_OS01G70970-cb002', 'no'),
  ('COc1cc(C(=O)N2CCC(N3CCN(C)CC3)CC2)ccc1Nc1ncc2c(n1)N(C)c1ccccc1C(=O)N2C', 'LOC_OS01G70970-cb002', 'no'),
  ('COc1cc(N2CCN(C)CC2)ccc1Nc1nccc(-c2cn(C)c3cnccc23)n1', 'LOC_OS01G70970-cb002', 'yes'),
  ('CNC(=O)Nc1ccc(-c2nc(N3CC4CCC(C3)O4)c3cnn(C4CCC5(CC4)OCCO5)c3n2)cc1', 'LOC_OS01G70970-cb002', 'no'),
  ('CNC(=O)c1ccc(Nc2ncc(C(F)(F)F)c(NCc3nccnc3N(C)S(C)(=O)=O)n2)cc1', 'LOC_OS01G70970-cb002', 'yes'),
  ('Cc1cc(Nc2ncnc3ccc(NC4=NC(C)(C)CO4)cc23)ccc1Oc1ccn2ncnc2c1 [Irbinitinib (ARRY-380, ONT-380)]', 'LOC_OS01G70970-cb002', 'no'),
  ('NC(=O)c1cnc(N[C@@H]2CCCC[C@@H]2N)nc1Nc1cccc(-n2nccn2)c1', 'LOC_OS01G70970-cb002', 'yes'),
  ('C=CC(=O)Nc1cccc(Nc2nc(Nc3ccc(N4CCN(C(C)=O)CC4)cc3OC)ncc2C(F)(F)F)c1 [Rociletinib (CO-1686, AVL-301)]', 'LOC_OS01G70970-cb002', 'yes');

* * *

Tested on: LOC_OS01G63280-cb003
ASSAY_COMMENT: thermal shift delta Tm vs DMSO control; higher = stronger stabilization (binding)
CONDITIONS_USED: 12.5 µM; protein concentration 2 µM
Kindly return Criterion met if reported thermal shift delta Tm is no lower than 0.5 °C; return Criterion not met if it is lower.

INSERT INTO measurements (substance_smiles, subject_of_test, group_label) VALUES
  ('Nc1cc(C(F)(F)F)c(-c2cc(N3CCOCC3)nc(N3CCOCC3)n2)cn1', 'LOC_OS01G63280-cb003', 'Criterion not met'),
  ('COC(=O)Nc1ccc(-c2nc(N3CCOCC3)c3cnn(C4CCN(C(=O)OC)CC4)c3n2)cc1', 'LOC_OS01G63280-cb003', 'Criterion not met'),
  ('CO[C@H]1C[C@@H]2CC[C@@H](C)[C@@](O)(O2)C(=O)C(=O)N2CCCC[C@H]2C(=O)O[C@H]([C@H](C)C[C@@H]2CC[C@H](n3cnnn3)[C@H](OC)C2)CC(=O)[C@H](C)/C=C(\C)[C@@H](O)[C@@H](OC)C(=O)[C@H](C)C[C@H](C)/C=C/C=C/C=C/1C', 'LOC_OS01G63280-cb003', 'Criterion met'),
  ('CN1CCN(CCOc2cc(OC3CCOCC3)c3c(Nc4c(Cl)ccc5c4OCO5)ncnc3c2)CC1', 'LOC_OS01G63280-cb003', 'Criterion not met'),
  ('Nc1nccc(Oc2ccc3c(C(=O)Nc4cccc(C(F)(F)F)c4)cccc3c2)n1', 'LOC_OS01G63280-cb003', 'Criterion met'),
  ('C[C@@H](N)[C@H]1CC[C@H](C(=O)Nc2ccncc2)CC1', 'LOC_OS01G63280-cb003', 'Criterion not met'),
  ('N#C/C(=C\c1ccc(O)c(O)c1)C(=O)NCc1ccccc1', 'LOC_OS01G63280-cb003', 'Criterion not met');

* * *

Tested on: LOC_OS07G06570-cb004
ASSAY_COMMENT: thermal shift delta Tm vs DMSO control; higher = stronger stabilization (binding)
CONDITIONS_USED: 12.5 µM; protein concentration 2 µM
Each entry below carries its recorded thermal shift delta Tm.
MEASURED_METRIC: thermal shift delta Tm (°C)

INSERT INTO results (compound, value_units, recorded_value) VALUES
  ('COc1cc2ncnc(Nc3cccc(Cl)c3F)c2cc1OC(=O)N1CCN(C)C[C@H]1C', '°C', 1.12),
  ('CC(C)(C)c1ccc(S(=O)(=O)/C=C/C#N)cc1', '°C', 0.39),
  ('Nc1ncnc2c1c(-c1cnc3[nH]ccc3c1)nn2C1CCCC1', '°C', 0.72),
  ('CC(C)(O)CNc1ncc(-c2ccnc(Nc3ccncc3)n2)c(CC2CC2)n1', '°C', 1.83),
  ('O=C1NC(=O)/C(=C/c2ccc(-c3ccc(F)cc3O)o2)S1', '°C', 1.83),
  ('CN(C)C/C=C/C(=O)Nc1cc2c(Nc3ccc(F)c(Cl)c3)ncnc2cc1O[C@H]1CCOC1 [Afatinib (BIBW2992)]', '°C', 0.78),
  ('CC[C@@H]1C(=O)N(C)c2cnc(Nc3ccc(C(=O)NC4CCN(C)CC4)cc3OC)nc2N1C1CCCC1', '°C', 0.75),
  ('c1ccc(-c2[nH]ncc2-c2ccnc3ccccc23)nc1', '°C', 0.81),
  ('O=C1CCc2c(Oc3ccc4c(c3)[C@@H]3[C@H](O4)[C@H]3c3nc4cc(C(F)(F)F)ccc4[nH]3)ccnc2N1', '°C', 1.23),
  ('COc1cc2nccc(Oc3ccc(NC(=O)NC4CC4)c(Cl)c3)c2cc1C(N)=O [Lenvatinib (E7080)]', '°C', 0.84),
  ('COc1cc2ncnc(Sc3nnc(C)s3)c2cc1OC', '°C', 1.21),
  ('COc1ccc(-c2cc3c(C)nc(N)nc3n([C@H]3CC[C@H](OCCO)CC3)c2=O)cn1', '°C', 1.04),
  ('C=CC(=O)N[C@H]1CCOC[C@H]1Nc1ncc2cc(-c3c(Cl)c(OC)cc(OC)c3Cl)ccc2n1', '°C', 0.52),
  ('NC1(c2ccc(-c3nc4ccn5c(=O)[nH]nc5c4cc3-c3ccccc3)cc2)CCC1', '°C', 0.66),
  ('CC(C)n1nc(-c2ccc3oc(N)nc3c2)c2c(N)ncnc21', '°C', 1.22),
  ('COc1cc(Nc2ncc(F)c(Nc3ccc4c(n3)N(COP(=O)(O)O)C(=O)C(C)(C)O4)n2)cc(OC)c1OC [Fostamatinib (R788)]', '°C', 0.55),
  ('CC(C)=CC[C@@H](O)C1=CC(=O)c2c(O)ccc(O)c2C1=O', '°C', 7.3),
  ('O=C(Nc1ccccc1C(=O)NC1CCCCNC1=O)c1cc2ccccc2s1 (stereo not drawn)', '°C', 1.21);

Data origin, for the record: the supplement of paper PMC9694430
